- PROCEDURE_DETAILS: qHTS of pediatric cancer cell lines to identify multiple opportunities for drug repurposing: Confirmatory screen for OHS-50 cells (AID 1347128);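 note: compound exposure lasted 48 h at 37 degrees C; nearly all actives have a fitted effect of over 55% in size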
- CONDITION_DETAILS: OHS-50 osteosarcoma cells viability; series mostly up to 45.9 µM
- Experimental: Drug repurposing or repositioning has been offered as a strategy for drug development in oncology programs. […] [1] Shen, M et al. Quantitative high-throughput phenotypic screening of pediatric cancer cell lines identifies multiple opportunities for drug repurposing. […] Cells were assayed in growth media at a density of 500-1,000 cells/well. […] After a 15 min incubation at room temperature, samples were analyzed for luminescence intensity using a ViewLux High-throughput CCD imager equipped with clear filters.
Results filed as inconclusive are left out. Calls of active or inactive are those of the source. Calls come from the whole dose curve; as a rule, active = well fitted cell-killing curve with a large enough effect; inconclusive = small, poorly fitted or top-dose-only effect, or effect the other way; inactive = no such curve, though single readings can be large or run the other way. Numbered stars: 1 amine (or outer) side, 2 acyl side, 3 side chain; on linkers, the order of the positions; unused ones are H or OH. Bridge positions count the residues as written; N and C are the ends. Square brackets hold non-standard residues; d marks the D form. Peptide text beside a SMILES is read from it. I, II: the chains in the order shown. Actinocin(9to1) = Cc1c2oc3c(C)ccc(C(=O)[*:1])c3nc-2c(C(=O)[*:2])c(N)c1=O; NMeV = CN[C@H](C(=O)O)C(C)C; Sar = CNCC(=O)O
Entry note: the call must match one of 1 (active), -1 (inactive)

Solved entries (count: 5):
compound=COCc1c(C(C)C)nc(C(C)C)c(/C=C/[C@@H](O)C[C@@H](O)CC(=O)O)c1-c1ccc(F)cc1 class_label=1
compound=C[C@@H]1C[C@H]2[C@@H]3CCC4=CC(=O)C=C[C@]4(C)[C@@]3(F)[C@@H](O)C[C@]2(C)[C@H]1C(=O)CO class_label=-1
compound=CC(C)(C(=O)c1cccnc1)c1cccnc1 class_label=-1
compound=CCCCCCC[N+](CC)(CC)CCCCc1ccc(Cl)cc1 class_label=1
compound=CC(=O)OCC(=O)[C@@]1(OC(C)=O)[C@@H](C)C[C@H]2[C@@H]3C[C@H](F)C4=CC(=O)C=C[C@]4(C)[C@@]3(F)[C@@H](O)C[C@@]21C class_label=-1

Kindly provide the recorded test outcome for the following compound: "COc1cccc2c1C(=O)c1c(O)c3c(c(O)c1C2=O)C[C@@](O)(C(=O)CO)C[C@@H]3O[C@H]1C[C@H](N)[C@H](O)[C@H](C)O1"
1

For this compound, state the assay outcome: "CCCCC(=O)O[C@]1(C(=O)CO)CC[C@H]2[C@@H]3CCC4=CC(=O)CC[C@]4(C)[C@H]3[C@@H](O)C[C@@]21C"
-1

Fill in: this test's call for "CCOc1ccc2nc3cc(N)ccc3c(N)c2c1" is ___
-1

Please state the recorded outcome for this compound: "COc1cc(C=C2CCC/C(=C\c3ccc(O)c(OC)c3)C2=O)ccc1O"
1

Write down the call the test reported for this compound. Item: Cc1c2oc3c(C)ccc(C(=O)N[C@@H]4C(=O)N[C@H](C(C)C)C(=O)N5CCC[C@H]5C(=O)N(C)CC(=O)N(C)[C@@H](C(C)C)C(=O)O[C@@H]4C)c3nc-2c(C(=O)N[C@@H]2C(=O)N[C@H](C(C)C)C(=O)N3CCC[C@H]3C(=O)N(C)CC(=O)N(C)[C@@H](C(C)C)C(=O)O[C@@H]2C)c(N)c1=O (I: T[dV]P[Sar][NMeV] / II: T[dV]P[Sar][NMeV]; ester I:1-I:C, II:1-II:C; linker I:N-II:N via Actinocin(9to1))
1

For "C[C@H]1C[C@H]2[C@@H]3CCC4=CC(=O)C=C[C@]4(C)[C@@]3(Cl)[C@@H](O)C[C@]2(C)[C@@]1(O)C(=O)CO" , what call appears in the results of this test?
-1

FYI, the data here is from PubChem BioAssay (NCATS).
